pKi: −log10 of the molar value.
Recorded pKi values (Adenosine receptor A3 (Homo sapiens)) are given below.
Readout type: pKi

(a) C=CCN1C(=O)N2CC(CC)N=C2c2[nH]c(-c3cc(OC)nn3C)nc21 (racemic)
(b) CCC1CN2C(=O)N(Cc3ccccc3)c3nc(-c4cc(OCc5ccccc5)nn4C)[nH]c3C2=N1 (racemic)
INPUT: Returns the identifier with the smallest measured pKi among a and b . Returns: label corresponding to the selected item.
OUTPUT: b
(b: 7.40, a: 8.71)

(P) C=CCN1C(=O)N2CC(CC)N=C2c2[nH]c(-c3cc(C)nn3C)nc21 (racemic)
(Q) CCC1CN2C(=O)N(Cc3ccccc3)c3nc(-c4cc(C)nn4C)[nH]c3C2=N1 (racemic)
(R) C=CCN1C(=O)N2CC(CC)N=C2c2[nH]c(-c3cc(OCc4ccccc4)nn3C)nc21 (racemic)
INPUT: Parameters: sort_field (pKi), sort_dir (desc). In plain terms: list the labels in the order you were asked to.
OUTPUT: P, Q, R

(a) C=CCN1C(=O)N2CC(CC)N=C2c2[nH]c(-c3cc(OC)no3)nc21 (racemic)
(b) CC[C@@H]1CN2C(=O)N(Cc3ccccc3)c3nc(-c4cc(C)nn4C)[nH]c3C2=N1
INPUT: Quick check, higher pKi between a and b ? Bench note: the answer is the label of the chosen record.
OUTPUT: a
(a: 8.71, b: 7.90)

(1) Cc1cc(-c2nc3c([nH]2)C2=NC(C)CN2C(=O)N3Cc2ccccc2)nn1C (centres undefined)
(2) COc1cc(-c2nc3c([nH]2)C2=N[C@H](C)CN2C(=O)N3Cc2ccccc2)n(C)n1
INPUT: Given 1 and given 2 , which shows the smaller recorded pKi? Write the label of whichever entry you select.
OUTPUT: 1

* * *

Tested target: Adenosine receptors; A1 & A3 (Homo sapiens) (UniProt P30542+P0DMS8)
Sequence (P0DMS8 whole entry, looked up): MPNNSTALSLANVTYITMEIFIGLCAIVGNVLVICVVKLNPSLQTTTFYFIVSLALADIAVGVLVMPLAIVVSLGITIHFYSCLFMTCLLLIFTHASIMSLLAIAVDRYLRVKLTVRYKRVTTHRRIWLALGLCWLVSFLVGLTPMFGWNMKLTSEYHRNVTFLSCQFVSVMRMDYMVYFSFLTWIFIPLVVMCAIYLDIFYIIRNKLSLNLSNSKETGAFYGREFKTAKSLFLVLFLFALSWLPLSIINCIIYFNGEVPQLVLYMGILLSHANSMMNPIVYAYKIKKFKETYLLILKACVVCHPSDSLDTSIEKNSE
Sequence (P30542 whole entry, looked up): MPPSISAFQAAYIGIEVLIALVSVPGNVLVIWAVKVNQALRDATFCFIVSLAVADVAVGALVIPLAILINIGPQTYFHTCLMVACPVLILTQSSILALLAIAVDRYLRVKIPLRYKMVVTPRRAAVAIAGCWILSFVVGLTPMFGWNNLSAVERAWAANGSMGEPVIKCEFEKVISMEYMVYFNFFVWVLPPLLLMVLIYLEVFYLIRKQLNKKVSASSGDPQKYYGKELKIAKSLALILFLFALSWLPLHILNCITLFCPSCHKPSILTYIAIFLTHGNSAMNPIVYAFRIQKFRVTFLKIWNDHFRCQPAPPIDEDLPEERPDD
Procedure details: Ratio of Ki for human adenosine A1 receptor to Ki for human adenosine A3 receptor
Readout type: Ratio Ki

Recorded Ratio Ki, per entry:
The recorded Ratio Ki for C=CCN1C(=O)N2CC(C)N=C2c2[nH]c(-c3cc(OC)nn3C)nc21 (racemic) is 2100

Consider CCC1CN2C(=O)N(Cc3ccccc3)c3nc(-c4cc(OCc5ccccc5)nn4C)[nH]c3C2=N1 (racemic) . Its measured Ratio Ki is 42

Sure, the documented Ratio Ki for C=CCN1C(=O)N2CC(CC)N=C2c2[nH]c(-c3cc(OC)nn3C)nc21 (racemic) is 780

(P) COc1cc(-c2nc3c([nH]2)C2=NC(C)CN2C(=O)N3Cc2ccccc2)n(C)n1 (centres undefined)
(Q) C=CCN1C(=O)N2CC(CC)N=C2c2[nH]c(-c3cc(OCc4ccccc4)nn3C)nc21 (racemic)
INPUT: Task for the reader: decide whether P or Q has the larger Ratio Ki. Write down the label attached to your selection.
OUTPUT: P

* * *

pKi: −log10 of the molar value.
Target or system Adenosine receptor A1 (Homo sapiens): recorded pKi listed per item.
Readout type: pKi

GET /value?item= C=CCN1C(=O)N2CC(CC)N=C2c2[nH]c(-c3cc(OC)no3)nc21 (racemic) &field=pKi returns 5.52

(P) C=CCN1C(=O)N2C[C@@H](C)N=C2c2[nH]c(-c3cc(C)nn3C)nc21
(Q) C=CCN1C(=O)N2CC(CC)N=C2c2[nH]c(-c3cc(OCc4ccccc4)nn3C)nc21 (racemic)
INPUT: // pick min by pKi: P , Q # answer = label of selected item
OUTPUT: P

(I) C=CCN1C(=O)N2C[C@H](CC)N=C2c2[nH]c(-c3cc(OC)nn3C)nc21
(II) CC[C@H]1CN2C(=O)N(Cc3ccccc3)c3nc(-c4cc(C)nn4C)[nH]c3C2=N1
INPUT: Form: Entry with minimum pKi (choose one): I / II Mark your selection by writing its label.
OUTPUT: I
(I: 5.97, II: 6.26)

* * *

Tested target: Adenosine receptor A2b (Homo sapiens)
Sequence (whole entry): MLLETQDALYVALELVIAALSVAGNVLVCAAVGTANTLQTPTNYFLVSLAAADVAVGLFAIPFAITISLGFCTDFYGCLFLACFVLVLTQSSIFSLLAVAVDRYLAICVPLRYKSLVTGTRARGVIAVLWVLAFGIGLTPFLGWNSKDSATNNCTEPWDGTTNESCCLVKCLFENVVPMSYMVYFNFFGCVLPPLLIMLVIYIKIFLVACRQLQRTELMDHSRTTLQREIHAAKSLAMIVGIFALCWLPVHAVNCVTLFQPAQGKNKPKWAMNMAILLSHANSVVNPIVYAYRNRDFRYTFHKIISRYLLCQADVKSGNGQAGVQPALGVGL
Procedure details: Antagonist activity human adenosine A2B receptor expressed in CHO cells assessed as inhibition of NECA-mediated [3H]cAMP accumulation at =<5000 nM after 150 mins by scintillation counter
Format: functional, cell-based
Readout type: inhibition (%)

Entry CC1CN2C(=O)N(Cc3ccccc3)c3nc(-c4cc(OCc5ccccc5)nn4C)[nH]c3C2=N1 (racemic) — recorded inhibition = 13

Notebook: C=CCN1C(=O)N2CC(C)N=C2c2[nH]c(-c3cc(C)nn3C)nc21 (racemic) , inhibition read as 30

Note to self: inhibition recorded for C=CCN1C(=O)N2CC(CC)N=C2c2[nH]c(-c3cc(C)n(C)n3)nc21 (racemic) was 16

inhibition recorded for this compound, CCC1CN2C(=O)N(Cc3ccccc3)c3nc(-c4cc(OCc5ccccc5)nn4C)[nH]c3C2=N1 (racemic) , is 12

Input C=CCN1C(=O)N2CC(C)N=C2c2[nH]c(-c3cc(OCc4ccccc4)nn3C)nc21 (racemic) . Output inhibition: 17

(I) C=CCN1C(=O)N2CC(C)N=C2c2[nH]c(-c3cc(OC)nn3C)nc21 (racemic)
(II) C=CCN1C(=O)N2CC(CC)N=C2c2[nH]c(-c3cc(C)nn3C)nc21 (racemic)
INPUT: Which of the two items, I and II , has the greater recorded inhibition? Record your answer as the label of the chosen record.
OUTPUT: II

* * *

Procedure details: Solubility of compound in water
Format: physicochemical
Readout type: solubility

The reported value for CCCN1C(=O)N2C[C@@H](CC)N=C2c2[nH]c(C34CCC(O)(CC3)CC4)nc21 in terms of solubility is > 100 mg/mL

* * *

pKi: −log10 of the molar value.
These compounds were tested on Adenosine receptor A2a (Homo sapiens, UniProt P29274); pKi is the recorded read-out.
Sequence (P29274 whole entry): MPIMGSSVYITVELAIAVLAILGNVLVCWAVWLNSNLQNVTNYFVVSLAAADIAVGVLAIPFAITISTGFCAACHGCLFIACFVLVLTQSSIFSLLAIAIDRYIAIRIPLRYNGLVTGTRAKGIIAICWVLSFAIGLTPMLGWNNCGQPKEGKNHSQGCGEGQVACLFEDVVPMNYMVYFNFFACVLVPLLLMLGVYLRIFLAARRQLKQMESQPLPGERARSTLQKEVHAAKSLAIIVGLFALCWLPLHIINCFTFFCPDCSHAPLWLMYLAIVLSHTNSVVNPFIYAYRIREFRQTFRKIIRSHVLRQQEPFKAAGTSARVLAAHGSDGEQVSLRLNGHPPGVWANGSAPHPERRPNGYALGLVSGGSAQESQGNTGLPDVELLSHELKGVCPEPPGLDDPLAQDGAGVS

pKi of CCC1CN2C(=O)N(Cc3ccccc3)c3nc(-c4cc(OCc5ccccc5)nn4C)[nH]c3C2=N1 (racemic) , assay on Adenosine receptor A2a (Homo sapiens, UniProt P29274), is 5.67

Further cases:
Observed pKi, Adenosine receptor A2a (Homo sapiens, UniProt P29274), CC[C@H]1CN2C(=O)N(Cc3ccccc3)c3nc(-c4cc(C)nn4C)[nH]c3C2=N1 : < 5.30

The reported pKi value, Adenosine receptor A2a (Homo sapiens, UniProt P29274), for C=CCN1C(=O)N2CC(CC)N=C2c2[nH]c(-c3cc(C)n(C)n3)nc21 (racemic) reads < 5.30

* * *

Tested target: Adenosine receptor A2a (Homo sapiens)
Procedure details: Displacement of [3H]ZM 241385 from human adenosine A2A receptor expressed in CHO cells at <=5000 nM after 60 mins by scintillation spectrometry
Type: cell-based
Readout type: inhibition (%)

These solved cases illustrate the format of a correct answer.
Tested on Adenosine receptor A2a (Homo sapiens), the item C=CCN1C(=O)N2CC(C)N=C2c2[nH]c(-c3cc(C)nn3C)nc21 (racemic) showed inhibition equal to 7

Bench note, Adenosine receptor A2a (Homo sapiens): C=CCN1C(=O)N2CC(C)N=C2c2[nH]c(-c3cc(C)n(C)n3)nc21 (racemic) , inhibition reads 1

Recorded inhibition for COc1cc(-c2nc3c([nH]2)C2=N[C@H](C)CN2C(=O)N3Cc2ccccc2)n(C)n1 on Adenosine receptor A2a (Homo sapiens) was 11

Record for CCC1CN2C(=O)N(Cc3ccccc3)c3nc(-c4cc(OC)no4)[nH]c3C2=N1 (racemic) under target or system Adenosine receptor A2a (Homo sapiens): inhibition reported as 12

Assay Adenosine receptor A2a (Homo sapiens), sample Cc1cc(-c2nc3c([nH]2)C2=NC(C)CN2C(=O)N3Cc2ccccc2)nn1C (stereo unspecified) , inhibition read: 9

Reported inhibition (Adenosine receptor A2a (Homo sapiens)) for entry C=CCN1C(=O)N2CC(CC)N=C2c2[nH]c(-c3cc(C)nn3C)nc21 (racemic) is 8

Record C=CCN1C(=O)N2C[C@@H](C)N=C2c2[nH]c(-c3cc(C)nn3C)nc21 ; system Adenosine receptor A2a (Homo sapiens); inhibition = 1

The observed inhibition for C=CCN1C(=O)N2CC(CC)N=C2c2[nH]c(-c3cc(OCc4ccccc4)nn3C)nc21 (racemic) when tested with Adenosine receptor A2a (Homo sapiens) stands at 5

Short answer on Adenosine receptor A2a (Homo sapiens) for CC[C@@H]1CN2C(=O)N(Cc3ccccc3)c3nc(-c4cc(C)nn4C)[nH]c3C2=N1 , inhibition: 3

Simply: C=CCN1C(=O)N2C[C@H](C)N=C2c2[nH]c(-c3cc(C)nn3C)nc21 , Adenosine receptor A2a (Homo sapiens), inhibition = 4

(I) C=CCN1C(=O)N2CC(C)N=C2c2[nH]c(-c3cc(OCc4ccccc4)nn3C)nc21 (racemic)
(II) C=CCN1C(=O)N2C[C@H](CC)N=C2c2[nH]c(-c3cc(OC)nn3C)nc21
(III) COc1cc(-c2nc3c([nH]2)C2=NC(C)CN2C(=O)N3Cc2ccccc2)n(C)n1 (stereo unspecified)
(IV) CC[C@H]1CN2C(=O)N(Cc3ccccc3)c3nc(-c4cc(C)nn4C)[nH]c3C2=N1
INPUT: Let's sort these by inhibition, smallest first. Go ahead? Show the ranking through the labels, in the order asked for.
OUTPUT: III, IV, II, I

(I) C=CCN1C(=O)N2CC(CC)N=C2c2[nH]c(-c3cc(OC)nn3C)nc21 (racemic)
(II) CCC1CN2C(=O)N(Cc3ccccc3)c3nc(-c4cc(C)n(C)n4)[nH]c3C2=N1 (racemic)
INPUT: Could you kindly indicate whether I or II has the higher inhibition value? Output the label that corresponds to your choice.
OUTPUT: II
(II: 13%, I: 1%)

(P) COc1cc(-c2nc3c([nH]2)C2=N[C@@H](C)CN2C(=O)N3Cc2ccccc2)n(C)n1
(Q) C=CCN1C(=O)N2C[C@@H](CC)N=C2c2[nH]c(-c3cc(OC)nn3C)nc21
INPUT: Hi there, can you help? I need to know whether P or Q has lower measured inhibition. Answer = label.
OUTPUT: P
